Reported Emax by item:
assay-system: human GPR119 (hGPR119) (Homo sapiens, UniProt Q8TDV5)
Construct: expressed in transfected cells
Sequence (Q8TDV5 whole entry): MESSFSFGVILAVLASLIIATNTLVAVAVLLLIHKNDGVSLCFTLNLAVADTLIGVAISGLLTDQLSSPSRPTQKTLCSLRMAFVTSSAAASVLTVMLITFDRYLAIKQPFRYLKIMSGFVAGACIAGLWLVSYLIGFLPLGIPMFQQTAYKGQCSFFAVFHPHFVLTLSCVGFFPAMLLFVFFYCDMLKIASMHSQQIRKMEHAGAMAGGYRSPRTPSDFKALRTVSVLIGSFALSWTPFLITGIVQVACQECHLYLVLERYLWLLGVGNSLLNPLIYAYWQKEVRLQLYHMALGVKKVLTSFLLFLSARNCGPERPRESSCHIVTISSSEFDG
measurement-protocol: cAMP accumulation assay (Cisbio cAMP Gs dynamic HTRF kit) in CHO-K1 cells stably expressing human GPR119
Type: cell-based
measurement-context: 1 h, % activity normalized to Max and Min controls, 4-parameter fit

- compound: "O=C(Cc1ccc(OCCCC2CCN(c3ncc(Cl)cn3)CC2)cc1F)N1C[C@H]2CCN(C[C@H](O)[C@@H](O)[C@H](O)[C@H](O)CO)[C@H]2C1"
  assay-endpoint: "Emax"
  reported: "100 to 130%"
- compound: "O=C(Cc1ccc(OCCCC2CCN(c3ncc(Cl)cn3)CC2)cc1F)N1CCC2(CCCC2NC[C@H](O)[C@@H](O)[C@H](O)[C@H](O)CO)C1 (stereo in doubt)"
  assay-endpoint: "Emax"
  reported: "≥ 130%"

Then this compound:
Requested read-out: Emax. Entry: O=C(Cc1ccc(OCCCC2CCN(c3ncc(Cl)cn3)CC2)cc1F)N1C[C@H]2CCN(C(=O)CCCCS(=O)(=O)O)[C@H]2C1
100 to 130%

Every entry's value here was drawn from patent US20240217983A1.
